Target: human ether-à-go-go-related gene (hERG) potassium channel (human);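 also: peak tail current of the secondary pulse compared with the same well before compound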
Sequence (Q12809 whole entry, looked up): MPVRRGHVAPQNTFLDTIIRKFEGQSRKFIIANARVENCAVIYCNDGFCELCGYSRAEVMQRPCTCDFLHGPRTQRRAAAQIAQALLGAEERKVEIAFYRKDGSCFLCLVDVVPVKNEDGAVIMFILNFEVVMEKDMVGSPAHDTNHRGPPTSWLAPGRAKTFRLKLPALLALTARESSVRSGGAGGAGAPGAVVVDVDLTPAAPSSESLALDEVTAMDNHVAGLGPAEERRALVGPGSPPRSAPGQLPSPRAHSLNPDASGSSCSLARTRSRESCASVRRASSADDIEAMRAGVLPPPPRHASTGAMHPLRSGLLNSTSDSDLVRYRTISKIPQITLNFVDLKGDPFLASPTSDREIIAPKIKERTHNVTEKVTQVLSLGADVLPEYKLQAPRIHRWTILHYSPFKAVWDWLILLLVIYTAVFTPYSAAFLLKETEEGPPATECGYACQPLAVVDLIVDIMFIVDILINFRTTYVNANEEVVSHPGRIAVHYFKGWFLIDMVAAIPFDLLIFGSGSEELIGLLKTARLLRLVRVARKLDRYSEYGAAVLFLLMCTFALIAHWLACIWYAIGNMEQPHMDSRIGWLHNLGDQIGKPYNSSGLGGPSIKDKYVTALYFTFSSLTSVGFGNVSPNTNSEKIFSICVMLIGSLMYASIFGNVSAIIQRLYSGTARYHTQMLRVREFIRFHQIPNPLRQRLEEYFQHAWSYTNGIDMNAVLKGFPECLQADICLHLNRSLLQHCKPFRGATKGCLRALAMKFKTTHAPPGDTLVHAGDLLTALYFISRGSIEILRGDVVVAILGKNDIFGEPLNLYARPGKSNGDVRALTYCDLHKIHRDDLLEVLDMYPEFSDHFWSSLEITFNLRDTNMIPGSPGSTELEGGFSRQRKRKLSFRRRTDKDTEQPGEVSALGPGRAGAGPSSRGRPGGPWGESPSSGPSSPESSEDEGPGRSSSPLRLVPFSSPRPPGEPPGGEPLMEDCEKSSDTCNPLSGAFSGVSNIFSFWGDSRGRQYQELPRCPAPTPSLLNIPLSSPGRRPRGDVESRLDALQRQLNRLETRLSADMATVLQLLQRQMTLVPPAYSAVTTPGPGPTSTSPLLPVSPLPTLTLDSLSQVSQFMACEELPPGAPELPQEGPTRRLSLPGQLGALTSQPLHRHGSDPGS
Assay: primary screen, population patch clamp on CHO cells stably expressing hERG; higher = less effect of the substance
Method: Briefly, Chinese hamster ovary (CHO) cells stably expressing the hERG channel were dislodged from tissue culture flasks and dispensed into PPC plates. […] During the recording, background leak currents were estimated by a 100 ms step to -80 mV from an initial holding potential of -70 mV and subtracted from the subsequent current measurement. The campaign was conducted in two phases using slight differences in recording protocol. […]
The campaign covered roughly 310,000 compounds. About 14,000 (4.5%) showed an effect of 50% or more. Effects have a minus sign here. Only a selection was taken, and strong results are over-represented in it overall.
Note to self: values exactly at -20% are yes. So hERG current change (%, negative = inhibition) at 10uM at or above -20% is yes, below is no.

[
  {
    "compound": "COc1ccc(C2(c3ccc(O)cc3O)CC(c3ccccc3Cl)NC(=S)N2)cc1 (stereo not shown)",
    "label value": "yes"
  },
  {
    "compound": "COC(=O)Cc1c(O)ccn(CCc2ccccc2)c1=O",
    "label value": "yes"
  },
  {
    "compound": "O=C(CCCn1c(=O)[nH]c2cc(Cl)ccc2c1=O)NCCCN1CCN(c2ccc(F)cc2)CC1",
    "label value": "no"
  },
  {
    "compound": "CC(=O)Nc1ccc(S(=O)(=O)NNC(=O)c2ccc(S(=O)(=O)N3CCCCC3)cc2)cc1",
    "label value": "yes"
  },
  {
    "compound": "Cc1ccc(S(=O)(=O)NCCC(=O)N2CCCCCC2)cc1",
    "label value": "yes"
  },
  {
    "compound": "CCOCCCN(C)C1CCN(C(=O)c2oc3ccccc3c2NC(=O)COc2cccc(C)c2)CC1",
    "label value": "no"
  },
  {
    "compound": "O=C(CN1C(=O)CSc2ncccc21)N1CCOCC1",
    "label value": "yes"
  },
  {
    "compound": "COc1ccc(C2(c3ccc(OC(C)=O)cc3OC(C)=O)CC(c3ccccc3)NC(=S)N2)cc1 (stereo not shown)",
    "label value": "no"
  },
  {
    "compound": "O=C(CCCCCn1c(=O)[nH]c2ccccc2c1=O)NCCCN1CCN(c2ccccc2F)CC1",
    "label value": "no"
  },
  {
    "compound": "CCOC(=O)C1CCCN(c2c(Nc3ccc(C)c(C)c3)c(=O)c2=O)C1 (stereo not shown)",
    "label value": "no"
  },
  {
    "compound": "O=C(Cn1c(=O)[nH]c2ccccc2c1=O)N1CCN(c2cccc(Cl)c2)CC1",
    "label value": "yes"
  },
  {
    "compound": "CCOCCCN(C)C1CCN(C(=O)c2oc3ccccc3c2NC(=O)Cc2ccc(F)cc2)CC1",
    "label value": "no"
  },
  {
    "compound": "O=C(CCCN1C(=O)CSc2ncccc21)N1CCN(Cc2ccccc2)CC1",
    "label value": "yes"
  },
  {
    "compound": "O=C(CCCN1C(=O)CSc2ncccc21)N1CCN(c2cccc(C(F)(F)F)c2)CC1",
    "label value": "no"
  },
  {
    "compound": "COCCn1c(=O)[nH]c2cc(C(=O)NCCN3CCN(c4cccc(Cl)c4)CC3)ccc2c1=O",
    "label value": "yes"
  },
  {
    "compound": "c1ccc(CCNc2ncnc3sccc23)nc1",
    "label value": "yes"
  }
]

Origin of values: paper PMC4336329
